FYI, the data here is from the supplement of paper PMC10567573.

Experiment: protein stability index of a GFP-peptide fusion (GPS, HEK-293T) (PSI 1-6); higher = more stable;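 further: 24-mer peptide tiles fused after GFP, lentivirally expressed, FACS-sorted into six equal bins by GFP/DsRed ratio, decoded by Illumina sequencing, PSI is the read-weighted mean bin number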
Details: treatment: MLN4924 1 uM, 8 h; c terminus: a fixed tail appended
Please enter 1.0 where protein stability index is greater than or equal to 3, and 0.0 where it is lower.

                          sequencetext  classification
 0     EDWDSALFAELGYFTDTDELQLEA [ATF6]             1.0
 1  QKHTEVETVDLVLKLKNKLLQADR [DENND6A]             1.0
 2     VDEAAAESPSFLSLRKGASLSNGQ [NCK2]             1.0
 3    CDYSQYFKTIEELRDKIMATTIDN [KRT15]             1.0
 4  VGTMVGADILAGREDNSGSDVLIG [SLC35F2]             1.0
 5   ILDLSCNKLTTLPSDFCGLTHLVK [LRRC59]             0.0
 6   SKDWVFLNYTYKRFEGLTQRGSIP [STK38L]             0.0
 7    WFESVLEPGYIDSEIGTSDQIVPE [TRIB1]             1.0
 8  VTGLMEATQMMVDIDGDVLVFLEL [RHOBTB2]             1.0
 9    VFSQMIHLNETVKAPDIECVLRCS [FEM1B]             0.0
10    NRLSELEVANKDLTERKYKGDSTI [SASS6]             1.0
11    VHTEFTLRNFNSAKDMKKAVAHMK [MATN2]             1.0
12    FVLFLFAYLVTVRGNLSILAAVLV [OR3A1]             1.0

---

Assay: protein stability index of a GFP-peptide fusion (GPS, HEK-293T) (PSI 1-6); higher = more stable
Settings: treatment: DMSO; c terminus: a fixed tail appended
measurementKind: protein stability index

In [3]: df
Out[3]:
                          sequencetext  measvalue
 0  SRAPQLHLEYRFYKQLGSAGEGLP [CSNK1G1]       2.73
 1     EDWDSALFAELGYFTDTDELQLEA [ATF6]        4.3
 2     MTMQFISHRFPEDHDPTIEDAYKI [RIT1]       3.24
 3    TTDPDLILEVLRSSPMVQVDEKGE [LARP4]       4.61
 4   SFVVARYFPAGNVVNEGFFEENVL [GLIPR2]       2.11
 5     SGRDRVGRQERGLPPSMERGYPPP [RBMX]          4
 6    IQVSLYCQEWYARRHCPLPQATFW [SOAT2]       2.87
 7     QQFKQYSRHVTTRAALTYTSLEIT [M1AP]       2.44
 8  ALSQLICFCRESRYMDQWVPVINL [GADD45A]       2.95
 9   QHESGQSSSRGSSHCDSPSPQEDG [BNIP3L]       5.62
10    AHIALETLEGHQRAIMAHMTVEEI [FLOT1]       3.25
11    PNNKEIPSHHPTDPVELRRLNFQT [PTPRD]       4.15
12   EEPVFEAVINWVKHAKKEREESLP [KLHL12]       4.16
13  LKKHGPICQKTATKKRKTFDSSRQ [ZC2HC1A]       4.09
14   LENREEPWVKELQDSKEMKQLLDS [ZNF449]       5.49
15  DTALLNLLPMLDALRFTADVRSVL [CTDNEP1]       2.78
16   QDLKLFLQEPGVFSPTPPQQFQPA [FCHSD1]       3.26
17     PVDGARYRWQGRRWEPSGKAEPRL [TBX6]       3.68
18    RSRGASQKKQKLEQKAAGSASAKR [FATE1]       5.07
19      LETHFRDVSSTEEFLELSPQKLKE [GAN]       5.38
20     KPSVDTEGPALVEIDRSVENTLLN [MIA2]       4.99
21     VFLHLLLLFKLVAPVTFRHHRYDD [CPN1]       3.12
22   AGTGAQAGQLMGFFKGIDQDIERG [LYSMD4]       4.01
23   ETSPLPGMLAPAAGPAFDSDPEIS [PPFIA4]       5.48
24  EKTQDDLMKHQTNISELKRTFLET [EPB41L3]       4.18
25     CNQCGKCFIQSSHLIRHQITHTRE [ZNF8]       4.28
26    EPLRSEILSGKFTILNVRDPTGAS [PTPN9]       3.65

---

Reported protein stability index by item:
Assay: protein stability index of a GFP-peptide fusion (GPS, HEK-293T) (PSI 1-6); higher = more stable
Conditions: treatment: MLN4924 1 uM, 8 h; c terminus: a fixed tail appended
measurementKind: protein stability index

>>> df
                           sequencetext          measurementkind  measvalue
 0   DLFDLCDRTFTLKTVLMIAIQLLS [CSNK1G1]  protein stability index       2.33
 1     FSTVWLCWDMQGKRFVAMKVVKSA [SRPK2]  protein stability index       2.46
 2     TRLFHDSAVTSVRILQDEQYLMAS [DCAF4]  protein stability index       2.88
 3     PPGHHAEQDAACGFCFFNSVAVAA [HDAC6]  protein stability index       2.96
 4     WAGFMVLLMIPWGSAAKLVCYFTN [CHIT1]  protein stability index       2.11
 5  NSLEGGTDATAFWWGEWTKWTACS [ADAMTSL2]  protein stability index       3.25
 6      SQGLAREQHAGTSEGLHLAGTAGH [FBF1]  protein stability index       4.84
 7     QEAAQLDMLLEKLPQVAEEISGPL [FLOT1]  protein stability index       4.76
 8     QLPISSENDSTPTVSTSEVTSQQE [TAF7L]  protein stability index        5.5
 9  KIKEKYIDQEELNKTKPIWTRNPD [HSP90AB1]  protein stability index       3.96
10     EISGPLTSANKITLVSSGSGTMGA [FLOT1]  protein stability index        3.5
11     APLLRWVLTLSFLVATVAVGLYAM [HMOX1]  protein stability index       2.74
12      HPDSPATGAHWMRQPVSFHRVKLT [TBX6]  protein stability index       3.23
13      GSDTGASLKLASSELERLIVPNSN [JUNB]  protein stability index       4.15
14     SKNEVGIFTTPNFDETSSATTIST [KMT2E]  protein stability index       4.79
15     DRECKLPPPSAPASEYCPGKLSWG [WDR88]  protein stability index       3.96
16     QGSRHWQKLREESAARVVLTSLLA [DUSP5]  protein stability index       2.44
17    EHGEKIYFFCENDAEFLCVFCREG [TRIM15]  protein stability index       2.53
18      AAYSSILSSLGENPQRQGLLKTPW [GCH1]  protein stability index       2.55
19     LRALREKLFAHSSDLLSEFKKHDA [PPEF2]  protein stability index       2.29
20     AEITQIQSHISDMSVILSMDNNRN [KRT71]  protein stability index        3.7
21    SFHSSGEKQKQPRWREGTKDSHDP [PBXIP1]  protein stability index       5.19
22      NYSIPSNVTNLEGGPGRQTTSPNV [ESR2]  protein stability index       4.68
23     TTKCVRQYEGHVNEYAYLPLHVHE [DCAF4]  protein stability index       3.17
24     KAQLLARVNKEHEHKLKVVRDQIS [TRIM9]  protein stability index       3.42
25      LATRSNEKQELQELNDRFANFIEK [PRPH]  protein stability index       4.37
26     ICPSTFACAQLATGAACRLVEAVL [HDAC6]  protein stability index       2.14

---

protein stability index values for the sequences below.
Experiment: protein stability index of a GFP-peptide fusion (GPS, HEK-293T) (PSI 1-6); higher = more stable
Details: treatment: DMSO; c terminus: a fixed tail appended
measurementKind: protein stability index

In [3]: df
Out[3]:
                           sequencetext  measvalue
 0     KDNEFTSKPWHWPINYQGLRFSGV [POMT2]       2.23
 1      PPLSHIMAQPLCIRALLNLHTDVG [NEK8]       2.21
 2  QGTGYIPTEQVNELVALIPHSDQR [TMEM106C]       4.73
 3     LKKKQKRQAELLEKRLQEIEELER [SRPK2]        4.2
 4  AENLDVKINENVAAGMRFPLPEAI [PCDHGA10]       4.29
 5     LQSEPHRAGVQWKFAGSFYFAITV [KCNK9]       3.47
 6   FGGTGIPFGESNGNGVHVCNVKYK [KLHDC10]       2.52
 7      RERPLNVFCDMETDGGGWLVFQRR [TNXB]          3
 8    GLLKYCSLLVHGFKPACMSEIKNL [TENT5D]       3.48
 9    SRYRSLRPNRQLGSMVEIAKQLQA [TRIM39]       2.74
10     LTRAGMSYYNSPGLHVQHMGTSHG [CCDC6]       2.67
11     ESKTDGDDTETVPSEQSHASGKLR [TCF25]       5.54
12    KLLKQMRILWKKIQENQRNLYEEG [TRIM43]       1.88
